The reported measurements were obtained from patent US4546176A.

Below is a list of entries, each paired with its recorded MIC value.
test system: Proteus morganii EP-14; test: Antibacterial activities (MIC), Proteus morganii EP-14; type: cell-based; conditions: Morganella morganii, EP14
Just the number please, in µg/mL, no unit attached.

Below are worked cases with known answers.
Cn1nnnc1SCC1=C(C(=O)O)N2C(=O)[C@@H](NC(=O)[C@H](NC(=O)c3coc4c(O)c(O)ccc4c3=O)c3ccc(OCC(=O)O)cc3)[C@H]2SC1	1.56
CCn1cc(C(=O)NC(C(=O)NC2C(=O)N3C(C(=O)O)=C(CSc4nnnn4C)CSC23)c2ccc(OCC(=O)O)cc2)c(=O)c2cc(OC(C)=O)c(OC(C)=O)cc21 (stereo not drawn)	0.4
O=C(O)COc1ccc([C@@H](NC(=O)c2coc3cc(O)c(O)cc3c2=O)C(=O)N[C@@H]2C(=O)N3C(C(=O)[O-])=C(C[n+]4ccccc4)CS[C@H]23)cc1	25

Q: # return recorded MIC for entry CO[C@@]1(NC(=O)[C@H](NC(=O)c2c(C)oc3c(O)c(O)ccc3c2=O)c2ccc(OCC(=O)O)cc2)C(=O)N2C(C(=O)O)=C(CSc3nnnn3CC(=O)O)CS[C@@H]21
Result: 6.25

Q: Note down MIC recorded for CO[C@@]1(NC(=O)[C@H](NC(=O)c2coc3cc(O)c(O)cc3c2=O)c2ccc(OCC(=O)O)cc2)C(=O)N2C(C(=O)[O-])=C(C[n+]3ccc(C(N)=O)cc3)CS[C@@H]21
Result: 25

Q: Complete the entry with MIC for CO[C@@]1(NC(=O)[C@H](NC(=O)c2c(C)oc3cc(OC(C)=O)c(OC(C)=O)cc3c2=O)c2ccc(OCC(=O)O)cc2)C(=O)N2C(C(=O)O)=C(CSc3nnnn3CC(=O)O)CS[C@@H]21
Result: 3.13

###

Record set of MIC for target or system Proteus morganii EP-14.
Respond with the bare value in mg/L.

Solved cases below.
CN(C)CCn1nnnc1SCC1=C(C(=O)O)N2C(=O)[C@@H](NC(=O)[C@H](NC(=O)c3coc4cc(O)c(O)cc4c3=O)c3ccc(OCC(=O)O)cc3)[C@H]2SC1	3.13
CC(=O)Oc1ccc2c(=O)c(C(=O)N[C@@H](C(=O)N[C@@H]3C(=O)N4C(C(=O)O)=C(CSc5nnnn5CC(=O)O)CS[C@H]34)c3ccc(OCC(=O)O)cc3)c(C)oc2c1OC(C)=O	6.25
CCn1cc(C(=O)N[C@@H](C(=O)N[C@@H]2C(=O)N3C(C(=O)[O-])=C(C[n+]4ccc(C(N)=O)cc4)CS[C@H]23)c2ccc(OCC(=O)O)cc2)c(=O)c2cc(O)c(O)cc21	6.25
Cc1oc2cc(O)c(O)cc2c(=O)c1C(=O)N[C@@H](C(=O)N[C@@H]1C(=O)N2C(C(=O)[O-])=C(C[n+]3ccccc3)CS[C@H]12)c1ccc(OCC(=O)O)cc1	12.5
Cc1nnc(SCC2=C(C(=O)O)N3C(=O)[C@@H](NC(=O)[C@H](NC(=O)c4coc5cc(O)c(O)cc5c4=O)c4ccc(OCC(=O)O)cc4)[C@H]3SC2)s1	1.56

Q: Output reported MIC of the compound CC(=O)Oc1cc2oc(C)c(C(=O)N[C@@H](C(=O)N[C@@H]3C(=O)N4C(C(=O)[O-])=C(C[n+]5ccc(C(N)=O)cc5)CS[C@H]34)c3ccc(OCC(=O)O)cc3)c(=O)c2cc1OC(C)=O on Proteus morganii EP-14.
Result: 6.25

Q: Name the value of MIC reported for Cc1oc2cc(O)c(O)cc2c(=O)c1C(=O)N[C@@H](C(=O)N[C@@H]1C(=O)N2C(C(=O)O)=C(CSc3nnnn3CC(=O)O)CS[C@H]12)c1ccc(OCC(=O)O)cc1 when tested on Proteus morganii EP-14.
Result: 3.13

Q: Report the value of MIC obtained on Proteus morganii EP-14 for CO[C@@]1(NC(=O)[C@H](NC(=O)c2c(C)oc3cc(O)c(O)cc3c2=O)c2ccc(OCC(=O)O)cc2)C(=O)N2C(C(=O)[O-])=C(C[n+]3ccc(C(N)=O)cc3)CS[C@@H]21 .
Result: 12.5

Q: Output reported MIC of the compound O=C(O)COc1ccc([C@@H](NC(=O)c2coc3cc(O)c(O)cc3c2=O)C(=O)N[C@@H]2C(=O)N3C(C(=O)O)=C(CSc4nnnn4CC(=O)O)CS[C@H]23)cc1 on Proteus morganii EP-14.
Result: 1.56

Q: Write MIC of CO[C@@]1(NC(=O)[C@H](NC(=O)c2c(C)oc3cc(O)c(O)cc3c2=O)c2ccc(OCC(=O)O)cc2)C(=O)N2C(C(=O)O)=C(COC(C)=O)CS[C@@H]21 ; system used: Proteus morganii EP-14
Result: 12.5

Q: Recall the reported MIC of Cc1oc2cc(O)c(O)cc2c(=O)c1C(=O)N[C@@H](C(=O)N[C@@H]1C(=O)N2C(C(=O)[O-])=C(C[n+]3ccc(C(=O)O)cc3)CS[C@H]12)c1ccc(OCC(=O)O)cc1 on Proteus morganii EP-14 and write it down.
Result: 6.25

###

In what follows, each item is paired with its MIC for Ser. marcescens ES-75.
Reply numerically in µg/mL, unit not repeated.

The following molecules have reported results that may help.
CO[C@@]1(NC(=O)[C@H](NC(=O)c2c(C)oc3cc(O)c(O)cc3c2=O)c2ccc(OCC(=O)O)cc2)C(=O)N2C(C(=O)[O-])=C(C[n+]3ccccc3)CS[C@@H]21 [Example 48]	0.1
Cc1nnc(SCC2=C(C(=O)O)N3C(=O)[C@@H](NC(=O)[C@H](NC(=O)c4coc5cc(O)c(O)cc5c4=O)c4ccc(OCC(=O)O)cc4)[C@H]3SC2)s1 [Example 6]	0.2
CC(=O)OCC1=C(C(=O)O)N2C(=O)[C@@H](NC(=O)[C@H](NC(=O)c3coc4c(OC(C)=O)c(OC(C)=O)ccc4c3=O)c3ccc(OCC(=O)O)cc3)[C@H]2SC1 [Example 17]	1.56

Q: Let me know recorded MIC for CCn1cc(C(=O)N[C@@H](C(=O)N[C@@H]2C(=O)N3C(C(=O)[O-])=C(C[n+]4ccc(C(N)=O)cc4)CS[C@H]23)c2ccc(OCC(=O)O)cc2)c(=O)c2cc(O)c(O)cc21 [Example 53] , thanks.
Result: 0.8

###

Below are compounds with their MIC as measured on Staph. aureus 209-P.
Respond with the bare value in µg/mL.

CO[C@@]1(NC(=O)[C@H](NC(=O)c2c(C)oc3c(OC(C)=O)c(OC(C)=O)ccc3c2=O)c2ccc(OCC(=O)O)cc2)C(=O)N2C(C(=O)O)=C(CSc3nnnn3CC(=O)O)CS[C@@H]21	100

Q: System Staph. aureus 209-P. Read-out MIC. Item Cc1oc2cc(O)c(O)cc2c(=O)c1C(=O)N[C@@H](C(=O)N[C@@H]1C(=O)N2C(C(=O)[O-])=C(C[n+]3ccc(CCS(=O)(=O)O)cc3)CS[C@H]12)c1ccc(OCC(=O)O)cc1 . Report value.
Result: 100

Q: Report value only: MIC, Staph. aureus 209-P, Cc1oc2c(O)c(O)ccc2c(=O)c1C(=O)N[C@@H](C(=O)N[C@@H]1C(=O)N2C(C(=O)O)=C(CSc3nnnn3CC(=O)O)CS[C@H]12)c1ccc(OCC(=O)O)cc1
Result: 100

Q: Retrieve MIC on Staph. aureus 209-P; query CC(=O)Oc1ccc2c(=O)c(C(=O)N[C@@H](C(=O)N[C@@H]3C(=O)N4C(C(=O)O)=C(CSc5nnnn5CC(=O)O)CS[C@H]34)c3ccc(OCC(=O)O)cc3)coc2c1OC(C)=O
Result: 100

Q: Recall the reported MIC of O=C(O)COc1ccc([C@@H](NC(=O)c2coc3cc(O)c(O)cc3c2=O)C(=O)N[C@@H]2C(=O)N3C(C(=O)[O-])=C(C[n+]4ccccc4)CS[C@H]23)cc1 on Staph. aureus 209-P and write it down.
Result: 25

###

assay: Acute toxicity LD50 (mouse, oral); conditions: in vivo
Measured LD50 values are reported for all entries that follow.

Worked examples follow.
CO[C@@]1(NC(=O)[C@H](NC(=O)c2coc3cc(O)c(O)cc3c2=O)c2ccc(OCC(=O)O)cc2)C(=O)N2C(C(=O)O)=C(CSc3nnnn3CC(=O)O)CS[C@@H]21	≥ 4000 mg/kg
Cc1oc2cc(O)c(O)cc2c(=O)c1C(=O)N[C@@H](C(=O)N[C@@H]1C(=O)N2C(C(=O)[O-])=C(C[n+]3ccc(CCS(=O)(=O)O)cc3)CS[C@H]12)c1ccc(OCC(=O)O)cc1	≥ 4000 mg/kg

Now consider the entry below.
Q: Give the reported value of LD50 for this record: CO[C@@]1(NC(=O)[C@H](NC(=O)c2c(C)oc3cc(O)c(O)cc3c2=O)c2ccc(OCC(=O)O)cc2)C(=O)N2C(C(=O)[O-])=C(C[n+]3ccc(C(N)=O)cc3)CS[C@@H]21
Result: ≥ 4000 mg/kg
